Data origin, for the record: patent US20260242735A1

- assay target: human CD33 L134R (human, UniProt P20138 18-364)
- Sequence (P20138 18-364 L134R limits assumed): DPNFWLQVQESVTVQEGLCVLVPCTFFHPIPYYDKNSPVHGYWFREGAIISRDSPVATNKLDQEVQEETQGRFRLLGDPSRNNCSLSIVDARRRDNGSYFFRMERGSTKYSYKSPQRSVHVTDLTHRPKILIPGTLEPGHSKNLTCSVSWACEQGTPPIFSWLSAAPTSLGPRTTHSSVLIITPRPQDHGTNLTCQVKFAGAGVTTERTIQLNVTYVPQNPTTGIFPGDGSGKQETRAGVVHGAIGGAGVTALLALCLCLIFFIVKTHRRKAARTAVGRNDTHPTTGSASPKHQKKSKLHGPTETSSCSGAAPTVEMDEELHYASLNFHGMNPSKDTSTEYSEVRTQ
- measurement description: flow cytometry, HEK293-T, IgG;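 further: CD33 point mutants transiently expressed, antibody binding measured by fluorescence in duplicate, background subtracted and scaled to binding on wild-type CD33 as 100%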
readout: Mean % WT Binding (% WT binding)

binder	readout	units text	quantitative readout
Refmab #1 (antibody, human IgG1, V domains shown, tested in IgG format; also called hP67.6) VH: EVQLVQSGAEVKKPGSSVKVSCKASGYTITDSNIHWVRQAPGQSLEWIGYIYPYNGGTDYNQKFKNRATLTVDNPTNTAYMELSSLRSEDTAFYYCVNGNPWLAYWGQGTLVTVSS VL: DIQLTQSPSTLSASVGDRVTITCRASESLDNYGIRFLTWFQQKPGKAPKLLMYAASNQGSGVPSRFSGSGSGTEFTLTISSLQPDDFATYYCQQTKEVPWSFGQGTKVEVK	Mean % WT Binding	% WT binding	3.1
